assay: Inhibition of TNFalpha-induced NFkappaB activation in mouse C2C12 cells incubated for 24 hrs prior to TNFalpha induction measured after 24 hrs by luciferase reporter gene assay; type: cell-based
log10(EC50) by entry:
Would you kindly interpret these values as log10 of EC50 expressed in nM?

Compound | Recorded measurement
CN1CCN(CC(=O)[C@@]2(O)CC[C@H]3[C@@H]4CCC5=CC(=O)CC[C@]5(C)C4=CC[C@@]32C)CC1 | 3.76

# input Recorded log10(EC50) for C[C@]12C=CC(=O)C=C1CC[C@@H]1C2=CC[C@]2(C)C(C(=O)CO)=CC[C@@H]12 , please?
# output 2.69

# input Recorded log10(EC50) for CC[C@@H]1C[C@H]2[C@@H]3CCC4=CC(=O)C=C[C@]4(C)C3=CC[C@]2(C)[C@H]1C(=O)CO , please?
# output 1.95

# input Recorded log10(EC50) for C[C@]12C=CC(=O)C=C1CC[C@@H]1C2=CC[C@@]2(C)[C@H]1CC[C@]2(O)C(=O)CO , please?
# output 2.11

# input Recorded log10(EC50) for CCCN(CCC)CC(=O)[C@H]1[C@H](C)C[C@H]2[C@@H]3CCC4=CC(=O)CC[C@]4(C)C3=CC[C@@]21C , please?
# output 2.86

# input Recorded log10(EC50) for C[C@@H]1C[C@H]2[C@@H]3CCC4=CC(=O)C=C[C@]4(C)C3=CC[C@]2(C)[C@H]1C(=O)CO , please?
# output 1.75

# input Recorded log10(EC50) for C[C@]12CCC(=O)C=C1CC[C@@H]1C2=CC[C@@]2(C)[C@H]1CC[C@]2(O)C(=O)CO , please?
# output 1.80

# input Recorded log10(EC50) for CC(=O)OCC(=O)[C@H]1[C@H](C)C[C@H]2[C@@H]3CCC4=CC(=O)C=C[C@]4(C)C3=CC[C@@]21C , please?
# output 1.73

# input Recorded log10(EC50) for C[C@@H]1C[C@H]2[C@@H]3CCC4=CC(=O)CC[C@]4(C)C3=CC[C@]2(C)[C@H]1C(=O)CN1CCOCC1 , please?
# output 3.72

# input Recorded log10(EC50) for C[C@]12CCC(=O)C=C1CC[C@@H]1C2=CC[C@@]2(C)[C@H]1CC[C@]2(O)C(=O)CN1CCCC1 , please?
# output 3.27

# input Recorded log10(EC50) for C[C@]12CCC(=O)C=C1CC[C@@H]1C2=CC[C@@]2(C)[C@H]1CC[C@]2(O)C(=O)CN1CCOCC1 , please?
# output 3.24

----------
Activity by entry:
Target: Glucocorticoid receptor (Mus musculus) (UniProt P06537)
Sequence (whole entry): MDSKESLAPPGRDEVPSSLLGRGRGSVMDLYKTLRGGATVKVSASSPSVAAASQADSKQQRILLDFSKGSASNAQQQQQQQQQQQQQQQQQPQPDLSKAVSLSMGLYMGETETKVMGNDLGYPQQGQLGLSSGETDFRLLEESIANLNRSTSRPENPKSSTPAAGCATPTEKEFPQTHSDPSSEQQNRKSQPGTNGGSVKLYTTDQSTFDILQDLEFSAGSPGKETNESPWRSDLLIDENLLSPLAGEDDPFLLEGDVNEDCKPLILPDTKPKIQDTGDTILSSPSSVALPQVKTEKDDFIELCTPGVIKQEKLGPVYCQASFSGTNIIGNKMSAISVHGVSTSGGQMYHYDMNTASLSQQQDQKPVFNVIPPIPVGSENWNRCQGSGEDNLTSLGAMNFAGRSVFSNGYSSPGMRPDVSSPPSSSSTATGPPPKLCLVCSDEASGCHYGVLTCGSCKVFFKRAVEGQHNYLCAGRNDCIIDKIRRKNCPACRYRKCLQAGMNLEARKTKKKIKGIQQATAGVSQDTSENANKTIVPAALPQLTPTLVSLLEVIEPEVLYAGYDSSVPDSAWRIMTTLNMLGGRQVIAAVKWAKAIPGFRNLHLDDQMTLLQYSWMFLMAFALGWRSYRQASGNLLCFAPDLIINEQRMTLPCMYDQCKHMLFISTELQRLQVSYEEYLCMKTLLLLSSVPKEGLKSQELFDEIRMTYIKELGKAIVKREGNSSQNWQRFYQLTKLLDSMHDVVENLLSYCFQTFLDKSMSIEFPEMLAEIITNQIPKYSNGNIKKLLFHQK
Experiment: Induction of glucocorticoid receptor nuclear translocation in mouse C2C12 cells at 1 x 10^-5 to 1.69 x 10^-10 M by chemiluminescence assay relative to control
Assay type: cell-based
The reply should be a number in %, with the unit left off.

Here are 3 molecules together with their reported answers.
Molecule | Experimental target | Unit spec | Activity
C[C@@H]1C[C@H]2[C@@H]3CCC4=CC(=O)CC[C@]4(C)C3=CC[C@]2(C)[C@H]1C(=O)CN1CCN(C)CC1 | Glucocorticoid receptor (Mus musculus) (UniProt P06537) | % | 14.7
C[C@@H]1C[C@H]2[C@@H]3CCC4=CC(=O)CC[C@]4(C)C3=CC[C@]2(C)[C@H]1C(=O)CN1CCCC1 | Glucocorticoid receptor (Mus musculus) (UniProt P06537) | % | 19.9
C[C@]12C=CC(=O)C=C1CC[C@@H]1C2=CC[C@]2(C)C(C(=O)CO)=CC[C@@H]12 | Glucocorticoid receptor (Mus musculus) (UniProt P06537) | % | 16.7

# input Recorded Activity for CC(=O)OCC(=O)C1=CC[C@H]2[C@@H]3CCC4=CC(=O)C=C[C@]4(C)C3=CC[C@]12C , please?
# output 15.3

# input Recorded Activity for C[C@@H]1C[C@H]2[C@@H]3CCC4=CC(=O)C=C[C@]4(C)C3=CC[C@]2(C)[C@H]1C(=O)CO , please?
# output 54.2
